# Test system: K562
# PROTOCOL: Cytotoxicity against human K562 cells assessed as cell viability at 10 uM after 24 hrs by MTT assay
# Assay type: functional
# APPLIED_CONDITIONS: K562, 24 h, read-out: GI
ENDPOINT_LABEL: inhibition of growth at 10 µM (%)
Only the number, expressed in %, is required.

Inquiry: Please supply the value of reported inhibition of growth at 10 µM for the item O=C1Nc2ccc(C#CCOC(c3cccs3)c3cccnc3Cl)cc2C1=O (stereo unspecified)
Reply text: 61.1

Inquiry: Please supply the value of reported inhibition of growth at 10 µM for the item O=C(O)c1ccccc1C#CCOC(c1cccs1)c1cccnc1Cl (stereo unspecified)
Reply text: 40.2

Inquiry: Please supply the value of reported inhibition of growth at 10 µM for the item O=[N+]([O-])c1ccccc1C#CCOC(c1cccs1)c1cccnc1Cl (stereo unspecified)
Reply text: 18.9

Continuing:
Inquiry: Please supply the value of reported inhibition of growth at 10 µM for the item CCOC(=O)c1sc2c(c1C#CCOC(c1cccs1)c1cccnc1Cl)CCC2 (stereo unspecified)
Reply text: 65.1

Inquiry: Please supply the value of reported inhibition of growth at 10 µM for the item Oc1ccccc1C#CCOC(c1cccs1)c1cccnc1Cl (stereo unspecified)
Reply text: 40.6

Inquiry: Please supply the value of reported inhibition of growth at 10 µM for the item CCOC(=O)c1c(C#CCOC(c2cccs2)c2cccnc2Cl)sc2c1CCCC2 (stereo unspecified)
Reply text: 53

Inquiry: Please supply the value of reported inhibition of growth at 10 µM for the item O=C(O)c1ccc(C#CCOC(c2cccs2)c2cccnc2Cl)cc1 (stereo unspecified)
Reply text: 57.7

====

# Test system: MDA-MB-231
# PROTOCOL: Cytotoxicity against estrogen receptor-negative human MDA-MB-231 cells assessed as cell viability at 10 uM after 24 hrs by MTT assay
# Format: functional
# APPLIED_CONDITIONS: MDA-MB-231, 24 h, read-out: GI
Listing of recorded inhibition of growth at 10 µM by entry.
Only the number, expressed in %, is required.

Inquiry: Please supply the value of reported inhibition of growth at 10 µM for the item COc1ccc(C#CCOC(c2cccs2)c2cccnc2Cl)cc1 (stereo unspecified)
Reply text: 70.1

Continuing:
Inquiry: Please supply the value of reported inhibition of growth at 10 µM for the item CCOC(=O)c1c[nH]nc1C#CCOC(c1cccs1)c1cccnc1Cl (stereo unspecified)
Reply text: 35.3

Inquiry: Please supply the value of reported inhibition of growth at 10 µM for the item O=C(O)c1ccc(C#CCOC(c2cccs2)c2cccnc2Cl)cc1 (stereo unspecified)
Reply text: 38.9

Inquiry: Please supply the value of reported inhibition of growth at 10 µM for the item O=C1Nc2ccc(C#CCOC(c3cccs3)c3cccnc3Cl)cc2C1=O (stereo unspecified)
Reply text: 72.3

Inquiry: Please supply the value of reported inhibition of growth at 10 µM for the item O=[N+]([O-])c1ccccc1C#CCOC(c1cccs1)c1cccnc1Cl (stereo unspecified)
Reply text: 48

Inquiry: Please supply the value of reported inhibition of growth at 10 µM for the item Oc1ccccc1C#CCOC(c1cccs1)c1cccnc1Cl (stereo unspecified)
Reply text: 70.8

====

Listing of recorded inhibition of growth at 10 µM by entry.
# PROTOCOL: Cytotoxicity against human IMR32 cells assessed as cell viability at 10 uM after 24 hrs by MTT assay
# Format: functional
# APPLIED_CONDITIONS: IMR-32, 24 h, read-out: GI

// worked examples, inhibition of growth at 10 µM included
Inquiry: Please supply the value of reported inhibition of growth at 10 µM for the item CCOC(=O)c1c(C#CCOC(c2cccs2)c2cccnc2Cl)sc2c1CCCC2 (stereo unspecified)
Reply text: 22.5%

Inquiry: Please supply the value of reported inhibition of growth at 10 µM for the item CCOC(=O)c1sc2c(c1C#CCOC(c1cccs1)c1cccnc1Cl)CCC2 (stereo unspecified)
Reply text: 25.2%

Inquiry: Please supply the value of reported inhibition of growth at 10 µM for the item O=C1Nc2ccc(C#CCOC(c3cccs3)c3cccnc3Cl)cc2C1=O (stereo unspecified)
Reply text: 58.4%

Inquiry: Please supply the value of reported inhibition of growth at 10 µM for the item Nc1ccccc1C#CCOC(c1cccs1)c1cccnc1Cl (stereo unspecified)
Reply text: 47.6%

Inquiry: Please supply the value of reported inhibition of growth at 10 µM for the item O=[N+]([O-])c1ccccc1C#CCOC(c1cccs1)c1cccnc1Cl (stereo unspecified)
Reply text: 53.2%

Continuing:
Inquiry: Please supply the value of reported inhibition of growth at 10 µM for the item COc1ccc(C#CCOC(c2cccs2)c2cccnc2Cl)cc1 (stereo unspecified)
Reply text: 20.7%

// provenance: ChEMBL document CHEMBL3120082
